test name: Encapsulation efficiency of lipid nanoparticles (Quant-it Ribogreen RNA quantification assay)
Type: physicochemical
study conditions: LNP encapsulating hEPO mRNA; Table 3
parameter measured: Encapsulation Efficiency (%)

CCCCC/C=C\CCCOC(=O)CCCCCN(CCCCCC(=O)OCCC/C=C\CCCCC)CCN(CCO)C1CCC1 [Compound 62]    36.2
CCCCCCCCC(CCCCCC)CNC(=O)CCCCCN(CCCCCC(=O)NCC(CCCCCC)CCCCCCCC)CCN(CCO)C1CCC1 (stereo not shown) [Compound 118]    98.9
CCCCCCCCC(CCCCCC)COC(=O)CCCCCN(CCCCCC(=O)OCC(CCCCCC)CCCCCCCC)CCN(CCO)C1CCOC1 (stereo not shown) [Compound 90]    97.3
CCCCCCCCC(CCCCCC)COC(=O)CCCCCN(CCCCCC(=O)OCC(CCCCCC)CCCCCCCC)CCN(C)C1CCC(O)CC1 (stereo not shown) [Compound 54]    97.2
CCCCCCCC(CCCCCCC)COC(=O)CCCCCN(CCCCCC(=O)OCC(CCCCCCC)CCCCCCC)CCN(CCC)C1CCC(O)CC1 (stereo not shown) [Compound 71]    93.0
CCCCCCCCC(CCCCCCCC)COC(=O)CCCCCN(CCCCCC(=O)OCC(CCCCCCCC)CCCCCCCC)CCN(CCCC)C1CCC(O)CC1 (stereo not shown) [Compound 67]    79.3
CCCCCCCCC(CCCCCC)COC(=O)CCCCCN(CCCCCC(=O)OCC(CCCCCC)CCCCCCCC)CCN(CCC)C1CC(O)C1 (stereo not shown) [Compound 60]    92.1

====

test name: Encapsulation efficiency of lipid nanoparticles (Quant-it Ribogreen RNA quantification assay)
Type: physicochemical
study conditions: LNP encapsulating hEPO mRNA; Table 3
Below, each of the molecules is paired with its reported Encapsulation Efficiency value.
parameter measured: Encapsulation Efficiency (%)

CCCCCCC(CCCCCC)CCCCCC(=O)OCCCCCN(CCCCCOC(=O)CCCCCC(CCCCCC)CCCCCC)CCN(CCO)C1CCC1    93.8
CCCCC/C=C\CCCC(CCC/C=C\CCCCC)OC(=O)CCCCCN(CCCCCC(=O)OCCC/C=C/CCCCC)CCN(CCO)C1CCC1    85.9
CCCCCCCCC(CCCCCC)COC(=O)CCCCCN(CCCCCC(=O)OCC(CCCCCC)CCCCCCCC)CCN1CC(O)C1 (stereo not shown)    96.8
CCCCCCCCC(CCCCCC)COC(=O)CCCCCN(CCCCCC(=O)OCC(CCCCCC)CCCCCCCC)CCN1CCC(O)C1 (stereo not shown)    97.2
CCCCCCCCCCCOC(=O)CCCCCN(CCCCCC(=O)OCC(CCCCCCCC)CCCCCCCC)CCN(CCO)C1CCCCCC1    93.2
CCCCCCCCC(CCCCCC)CNC(=O)CCCCCN(CCCCCC(=O)NCC(CCCCCC)CCCCCCCC)CCN(CCO)C1CC1 (stereo not shown) [Compound 119]    93.2
CCCCCCCCC(CCCCCCCC)CC(=O)NCCCCCN(CCCCCOC(=O)CC(CCCCCCCC)CCCCCCCC)CCN(CCO)C1CCCCCC1    93.1

====

test name: Lipid nanoparticle size by dynamic light scattering (Malvern Zetasizer Nano ZS)
Assay type: physicochemical
study conditions: LNP: cationic lipid/DSPC/cholesterol/PEG-lipid 50:10:38.5:1.5, hEPO mRNA; Table 3
So basically: is polydispersity under 0.03? Then label 1. Not under? Then label 0.

CCCCCCCCC(CCCCCC)CC(=O)OCCCCCN(CCCCCOC(=O)CC(CCCCCC)CCCCCCCC)CCN(CCO)C1CCC1 (stereo not drawn)    label 0
CCCCCCCCC(CCCCCCCC)COC(=O)CCCCCN(CCCCCC(=O)OCC(CCCCCCCC)CCCCCCCC)CCN(CCCCCC)C1CCC(O)CC1 (stereo not drawn)    label 0
CCCCCCCCC(CCCCCCCC)COC(=O)CCCCCN(CCCCCC(=O)OCC(CCCCCCCC)CCCCCCCC)CCN(CCO)C1CC(F)(F)C1    label 0
CCCCCCCCC(CCCCCC)COC(=O)CCCCCN(CCCCCC(=O)OCC(CCCCCC)CCCCCCCC)CCN(C)C1CC(O)C1 (stereo not drawn)    label 1
CCCCCCCCCCC(CCCCCC)COC(=O)CCCN(CCCC(=O)OCC(CCCCCC)CCCCCCCCCC)CCN(CCO)C1CCC1 (stereo not drawn)    label 0
CCCCCCCCC(CCCCCC)COC(=O)CCCCCN(CCCCCC(=O)OCC(CCCCCC)CCCCCCCC)CCN(CCO)C1CCOCC1 (stereo not drawn)    label 1

====

Below, each of the compounds is paired with its reported size nm value.
test name: Lipid nanoparticle size by dynamic light scattering (Malvern Zetasizer Nano ZS)
Format: physicochemical
study conditions: LNP: cationic lipid/DSPC/cholesterol/PEG-lipid 50:10:38.5:1.5, hEPO mRNA; Table 3
parameter measured: size nm (nm)

CCCCCCCCC(CCCCCC)COC(=O)CCCCCN(CCCCCC(=O)OCC(CCCCCC)CCCCCCCC)CCN(CCCCCCO)C1CCC1 (stereo not shown)    80.46
CCCCCCCCC(CCCCCCCC)COC(=O)CCOCCN(CCOCCC(=O)OCC(CCCCCCCC)CCCCCCCC)CCN(CCO)C1CCC1    70.49
CCCCCCCCC(CCCCCC)CC(=O)NCCCCCN(CCCCCNC(=O)CC(CCCCCC)CCCCCCCC)CCN(CCO)C1CCCC1 (stereo not shown)    87.92
CCCCCCCCC(CCCCCC)CNC(=O)CCCCCN(CCCCCC(=O)NCC(CCCCCC)CCCCCCCC)CCN(CCO)C1CCCCC1 (stereo not shown) [Compound 120]    59.78
CCCCCCCCC(CCCCCC)CNC(=O)CCCCCN(CCCCCC(=O)OCC(CCCCCC)CCCCCCCC)CCN(CCO)C1CCCC1 (stereo not shown)    78.17
CCCCCCCCC(CCCCCC)COC(=O)CCCCCN(CCCCCC(=O)OCC(CCCCCC)CCCCCCCC)CCN1CC(O)C1 (stereo not shown)    66.69
CCCCCCCCC(CCCCCC)COC(=O)CCCCCN(CCCCCC(=O)OCC(CCCCCC)CCCCCCCC)CCN(CCC)C1CC(O)C1 (stereo not shown)    68.6

====

test name: Lipid nanoparticle size by dynamic light scattering (Malvern Zetasizer Nano ZS)
Assay type: physicochemical
study conditions: LNP: cationic lipid/DSPC/cholesterol/PEG-lipid 50:10:38.5:1.5, hEPO mRNA; Table 2
parameter measured: polydispersity

CCCCCCCCC(CCCCCC)COC(=O)CCCCCN(CCCCCC(=O)OCC(CCCCCC)CCCCCCCC)CCN(CCCO)C1CCCCCC1 (stereo not drawn) [Compound 10]    0.113
CCCCCCCCC(CCCCCC)COC(=O)CCCCCN(CCCCCC(=O)OCC(CCCCCC)CCCCCCCC)CCN(CCO)C1CCCCC1 (stereo not drawn) [Compound 2]    0.065
CCCCCCCCC(CCCCCC)COC(=O)CCCCCN(CCCCCC(=O)OCC(CCCCCC)CCCCCCCC)CCN(CCO)C1CCC1 (stereo not drawn) [Compound 1]    0.168
CCCCC/C=C\C/C=C\CCCCCCCCC(CCCCCCCC/C=C\C/C=C\CCCCC)OC(=O)CCCN(C)C [MC3, dilinoleylmethyl-4-dimethylaminobutyrate, reference compound]    0.042
CCCCCCCCC(CCCCCC)COC(=O)CCCCCN(CCCCCC(=O)OCC(CCCCCC)CCCCCCCC)CCN(CCO)c1ccccc1 (stereo not drawn) [Compound 7]    0.110
CCCCCCCCC(CCCCCC)COC(=O)CCCCCN(CCCCCC(=O)OCC(CCCCCC)CCCCCCCC)CCN(CCO)C1CCCC1 (stereo not drawn) [Compound 5]    0.029
CCCCCCCCC(CCCCCC)COC(=O)CCCCCN(CCCCCC(=O)OCC(CCCCCC)CCCCCCCC)CCN(CCCO)C1CCCCC1 (stereo not drawn) [Compound 9]    0.106
CCCCCCCCC(CCCCCC)COC(=O)CCCCCN(CCCCCC(=O)OCC(CCCCCC)CCCCCCCC)CCN(CCO)CCCC (stereo not drawn) [Compound C]    0.061
CCCCCCCCC(CCCCCC)COC(=O)CCCCCN(CCCCCC(=O)OCC(CCCCCC)CCCCCCCC)CCN(CCO)C1CCCCCC1 (stereo not drawn) [Compound 3]    0.060
CCCCCCCCC(CCCCCC)COC(=O)CCCCCN(CCCCCC(=O)OCC(CCCCCC)CCCCCCCC)CCN(C)CCO (stereo not drawn) [Compound B]    0.060
CCCCCCCCC(CCCCCC)COC(=O)CCCCCN(CCCCCC(=O)OCC(CCCCCC)CCCCCCCC)CCN(CCO)C1CCCCCCC1 (stereo not drawn) [Compound 6]    0.109
CCCCCCCCC(CCCCCC)COC(=O)CCCCCN(CCCCCC(=O)OCC(CCCCCC)CCCCCCCC)CCNCCO (stereo not drawn) [Compound A]    0.108
CCCCCCCCC(CCCCCC)COC(=O)CCCCCN(CCCCCC(=O)OCC(CCCCCC)CCCCCCCC)CCN(CCO)C1CC1 (stereo not drawn) [Compound 4]    0.068
CCCCCCCCC(CCCCCC)COC(=O)CCCCCN(CCCCCC(=O)OCC(CCCCCC)CCCCCCCC)CCN(C(=O)CCO)C1CCC1 (stereo not drawn) [Compound 8]    0.065
CCCCCCCCC(CCCCCC)COC(=O)CCCCCN(CCCCCC(=O)OCC(CCCCCC)CCCCCCCC)CCN(CCO)CCCCCC (stereo not drawn) [Compound D]    0.118

Source of measurements: patent US11472766B2
